- assay.name: Ferret plasma PK, single dose
- Type: in vivo
- reported.conditions: ferrets, 50 mg/kg PO, plasma
quantity.name: AUC(0-inf) (µM·h)

smiles_str=O=c1ccn([C@@H]2O[C@](F)(CO)[C@@H](O)[C@H]2O)c(=O)[nH]1 quantity_name=AUC(0-inf) unit_spec=µM·h number=413

====

- assay.name: in vitro
- reported.conditions: human
quantity.name: CC50

smiles_str=O=c1ccn([C@@H]2O[C@](F)(CO)[C@@H](O)[C@H]2O)c(=O)[nH]1 result="> 50 µM"

====

- assay.name: Mouse plasma PK, single dose
- reported.conditions: female, ICR (CD-1), mouse, plasma, po, 500 mg/kg
quantity.name: Tmax (h)

smiles_str=O=c1ccn([C@@H]2O[C@](F)(CO)[C@@H](O)[C@H]2O)c(=O)[nH]1 quantity_name=Tmax unit_spec=h number=1

====

- assay.name: Guinea pig plasma PK, single dose
- Assay type: in vivo
- reported.conditions: guinea pig; Guinea pigs, 5 mg/kg IV, plasma
quantity.name: Cmax (µM)

compound="O=c1ccn([C@@H]2O[C@](F)(CO)[C@@H](O)[C@H]2O)c(=O)[nH]1 [EIDD-02749]" unit_spec=µM number=144

====

- assay.name: Mouse plasma PK, single dose
- reported.conditions: female, ICR (CD-1), mouse, plasma, po, 5 mg/kg
quantity.name: Cmax (µM)

compound="O=c1ccn([C@@H]2O[C@](F)(CO)[C@@H](O)[C@H]2O)c(=O)[nH]1 [EIDD-02749]" number=7.1

====

- assay.name: Ferret plasma PK, single dose
- Type: in vivo
- reported.conditions: ferrets, 15 mg/kg PO, plasma
quantity.name: Cmax

smiles_str=O=c1ccn([C@@H]2O[C@](F)(CO)[C@@H](O)[C@H]2O)c(=O)[nH]1 quantity_name=Cmax result="34.8 µM"

====

- System: SARS
- assay.name: microbe, parasite or virus in culture
- Type: cell-based, SARS coronavirus
- reported.conditions: Severe acute respiratory syndrome coronavirus, Vero 76
quantity.name: EC50 (µM)

compound="O=c1ccn([C@@H]2O[C@](F)(CO)[C@@H](O)[C@H]2O)c(=O)[nH]1 [EIDD-2749]" number=14.1

====

- assay.name: Mouse plasma PK, single dose
- reported.conditions: female, ICR (CD-1), mouse, plasma, po, 15 mg/kg
quantity.name: Cmax (µM)

smiles_str=O=c1ccn([C@@H]2O[C@](F)(CO)[C@@H](O)[C@H]2O)c(=O)[nH]1 quantity_name=Cmax number=23.3

====

- assay.name: Mouse plasma PK, single dose
- reported.conditions: female, ICR (CD-1), mouse, plasma, po, 1.5 mg/kg
quantity.name: AUC(0-inf) (µM·h)

compound="O=c1ccn([C@@H]2O[C@](F)(CO)[C@@H](O)[C@H]2O)c(=O)[nH]1 [EIDD-02749]" number=6.58

====

- assay.name: Mouse plasma PK, single dose
- reported.conditions: female, ICR (CD-1), mouse, plasma, po, 5 mg/kg
quantity.name: AUC(0-inf)

compound="O=c1ccn([C@@H]2O[C@](F)(CO)[C@@H](O)[C@H]2O)c(=O)[nH]1 [EIDD-02749]" quantity_name=AUC(0-inf) result="28.6 µM·h"

====

- assay.name: Ferret plasma PK, single dose
- Assay type: in vivo
- reported.conditions: ferrets, 50 mg/kg PO, plasma
quantity.name: Cmax

smiles_str=O=c1ccn([C@@H]2O[C@](F)(CO)[C@@H](O)[C@H]2O)c(=O)[nH]1 quantity_name=Cmax result="63.3 µM"

====

- assay.name: Guinea pig plasma PK, single dose
- Format: in vivo
- reported.conditions: guinea pig; Guinea pigs, 5 mg/kg IV, plasma
quantity.name: half-life (h)

smiles_str=O=c1ccn([C@@H]2O[C@](F)(CO)[C@@H](O)[C@H]2O)c(=O)[nH]1 unit_spec=h number=9.3

====

- Tested on: Junin virus
- assay.name: microbe, parasite or virus in culture
- Format: cell-based
- reported.conditions: Mammarenavirus juninense, Vero C1008
pEC50: −log10 of the molar value.
quantity.name: pEC50

smiles_str=O=c1ccn([C@@H]2O[C@](F)(CO)[C@@H](O)[C@H]2O)c(=O)[nH]1 number=7.10

====

- assay.name: Mouse plasma PK, single dose
- reported.conditions: female, ICR (CD-1), mouse, plasma, po, 1.5 mg/kg
quantity.name: Cmax (nM)

compound="O=c1ccn([C@@H]2O[C@](F)(CO)[C@@H](O)[C@H]2O)c(=O)[nH]1 [EIDD-02749]" number=1200

====

- assay.name: Mouse plasma PK, single dose
- reported.conditions: female, ICR (CD-1), mouse, plasma, po, 5 mg/kg
quantity.name: half-life (h)

smiles_str=O=c1ccn([C@@H]2O[C@](F)(CO)[C@@H](O)[C@H]2O)c(=O)[nH]1 number=15.2

====

- assay.name: Mouse plasma PK, single dose
- reported.conditions: female, ICR (CD-1), mouse, plasma, po, 150 mg/kg
quantity.name: Tmax (h)

smiles_str=O=c1ccn([C@@H]2O[C@](F)(CO)[C@@H](O)[C@H]2O)c(=O)[nH]1 unit_spec=h number=1

====

- assay.name: Guinea pig plasma PK, single dose
- Format: in vivo
- reported.conditions: guinea pig; Guinea pigs, 50 mg/kg PO, plasma
quantity.name: AUC(0-inf) (µM·h)

smiles_str=O=c1ccn([C@@H]2O[C@](F)(CO)[C@@H](O)[C@H]2O)c(=O)[nH]1 quantity_name=AUC(0-inf) number=558

====

- assay.name: Guinea pig plasma PK, single dose
- Type: in vivo
- reported.conditions: guinea pig; Guinea pigs, 5 mg/kg PO, plasma
quantity.name: Cmax (µM)

smiles_str=O=c1ccn([C@@H]2O[C@](F)(CO)[C@@H](O)[C@H]2O)c(=O)[nH]1 quantity_name=Cmax number=20.1

====

- assay.name: Ferret plasma PK, single dose
- Type: in vivo
- reported.conditions: ferrets, 15 mg/kg PO, plasma
quantity.name: Tmax

smiles_str=O=c1ccn([C@@H]2O[C@](F)(CO)[C@@H](O)[C@H]2O)c(=O)[nH]1 result="1 h"

====

- assay.name: Guinea pig plasma PK, single dose
- Assay type: in vivo
- reported.conditions: guinea pig; Guinea pigs, 5 mg/kg IV, plasma
quantity.name: AUC(0-inf)

smiles_str=O=c1ccn([C@@H]2O[C@](F)(CO)[C@@H](O)[C@H]2O)c(=O)[nH]1 result="108 µM·h"

====

- assay.name: Mouse plasma PK, single dose
- reported.conditions: female, ICR (CD-1), mouse, plasma, po, 50 mg/kg
quantity.name: half-life (h)

smiles_str=O=c1ccn([C@@H]2O[C@](F)(CO)[C@@H](O)[C@H]2O)c(=O)[nH]1 quantity_name=half-life unit_spec=h number=8.28

====

- assay.name: Cytotoxicity (CC50) in RD cells
- Format: cell-based, Human
- reported.conditions: human, RD cells, alongside antiviral assays
quantity.name: CC50 (µM)

smiles_str=O=c1ccn([C@@H]2O[C@](F)(CO)[C@@H](O)[C@H]2O)c(=O)[nH]1 quantity_name=CC50 unit_spec=µM number=228

====

- assay.name: Mouse plasma PK, single dose
- reported.conditions: female, ICR (CD-1), mouse, plasma, po, 15 mg/kg
quantity.name: AUC(0-inf) (µM·h)

smiles_str=O=c1ccn([C@@H]2O[C@](F)(CO)[C@@H](O)[C@H]2O)c(=O)[nH]1 number=86.9
